measured.target: T1, Acro SARS-CoV-2 (COVID-19) S1 protein (SARS-CoV-2, UniProt P0DTC2 16-685)
T1 construct: also called SARS-CoV-2 S1
assay.info: SPR
Would you kindly list log10 of Kd for each of these binders?
Recorded Kd (log10, µM)

Provide only the value of recorded log10 of Kd for variant 6-9 (Fc fusion) VHH: EVQLVESGGGLVQPGGSLRLSCAASGFTFDYYAMGWFRQAPGKEREFVSAIDSEGRTSYADSVKGRFTISADNSKNTAYLQMNSLKPEDTAVYYCARWGPFDIWGQGTLVTVSS
-1.73

Provide only the value of recorded log10 of Kd for variant 5-60 (Fc fusion) VHH: EVQLVESGGGLVQPGGSLRLSCAASGRSFSSHRMGWFRQAPGKEREFVAAIMWSGSHRNYADSVKGRFTISADNSKNTAYLQMNSLKPEDTAVYYCAAIAYEEGVYRWDWGQGTLVTVSS
-1.53

Provide only the value of recorded log10 of Kd for variant 6-46 (Fc fusion) VHH: EVQLVESGGGLVQPGGSLRLSCAASGLTFSAMGWFRQAPGKEREFVALIRRDGSTIYADSVKGRFTISADNSKNTAYLQMNSLKPEDTAVYYCAALGILFGYDAFDIWGQGTLVTVSS
-1.74

Provide only the value of recorded log10 of Kd for variant 6-62 (Fc fusion) VHH: EVQLVESGGGLVQPGGSLRLSCAASGSTFSGNWMGWFRQAPGKEREFVAVISWTGGSTYYADSVKGRFTISADNSKNTAYLQMNSLKPEDTAVYYCATHNSLSGFDYWGQGTLVTVSS
-0.82

Provide only the value of recorded log10 of Kd for variant 6-45 (Fc fusion) VHH: EVQLVESGGGLVQPGGSLRLSCAASGNMFSINAMGWFRQAPGKEREFVTLISWSSGRTSYADSVKGRFTISADNSKNTAYLQMNSLKPEDTAVYYCASLGYCSGGSCFDYWGQGTLVTVSS
-1.76

Provide only the value of recorded log10 of Kd for variant 6-4 (Fc fusion) VHH: EVQLVESGGGLVQPGGSLRLSCAASGFTRDYYTMGWFRQAPGKEREFVAAISRSGSLTSYADSVKGRFTISADNSKNTAYLQMNSLKPEDTAVYYCANLAYYDSSGYYDYWGQGTLVTVSS
-1.34

Provide only the value of recorded log10 of Kd for variant 6-102 (Fc fusion) VHH: EVQLVESGGGLVQPGGSLRLSCAASGSSFSAYAMGWFRQAPGKEREFVSAIDSEGTTTYADSVKGRFTISADNSKNTAYLQMNSLKPEDTAVYYCAGDYNFWSGFDHWGQGTLVTVSS
-1.34

Provide only the value of recorded log10 of Kd for variant 5-21 (Fc fusion) VHH: EVQLVESGGGLVQPGGSLRLSCAASGGTFTTYHMGWFRQAPGKEREFVAHISTGGATNYADSVKGRFTISADNSKNTAYLQMNSLKPEDTAVYYCATFPAIVTDSDYDLGNDWGQGTLVTVSS
0.03

Provide only the value of recorded log10 of Kd for variant 6-36 (Fc fusion) VHH: EVQLVESGGGLVQPGGSLRLSCAASGFDFSVSWMGWFRQAPGKEREFVTAITWSGDSTNYADSVKGRFTISADNSKNTAYLQMNSLKPEDTAVYYCASLLHTGPSGGNYFDYWGQGTLVTVSS
-1.49

Provide only the value of recorded log10 of Kd for variant 6-112 (Fc fusion) VHH: EVQLVESGGGLVQPGGSLRLSCAASGGTFSAYHMGWFRQAPGKERELVTIIDNGGPTSYADSVKGRFTISADNSKNTAYLQMNSLKPEDTAVYYCTALLYYFDNSGYNFDPFDIWGQGTLVTGSS
0.51

Provide only the value of recorded log10 of Kd for variant 6-30 (Fc fusion) VHH: EVQLVESGGGLVQPGGSLRLSCAASGFAFGDSWMGWFRQAPGKEREFVATINWSGVTAYADSVKGRFTISADNSKNTAYLQMNSLKPEDTAVYYCARADGYFDYWGQGTLVTVSS
-1.93

Provide only the value of recorded log10 of Kd for variant 6-108 (Fc fusion) VHH: EVQLVESGGGLVQPGGSLRLSCAASGGTFGSYGMGWFRQAPGKEREFVAAIRWSGGITYYADSVKGRFTISADNSKNTAYLQMNSLKPEDTAVYYCARERYWNPLPYYYYGMDVWGQGTLVTVSS
-1.16

Provide only the value of recorded log10 of Kd for variant 6-14 (Fc fusion) VHH: EVQLVESGGGLVQPGGSLRLSCAASGITFRFKAMGWFRQAPGKEREFVAAVSWDGRNTYYADSVKGRFTISADNSKNTAYLQMNSLKPEDTAVYYCASDYYYMDVWGQGTLVTVSS
-0.87

Provide only the value of recorded log10 of Kd for variant 6-39 (Fc fusion) VHH: EVQLVESGGGLVQPGGSLRLSCAASGFTFSPSWMGWFRQAPGKEREFVAAISWSGGSTAYADSVKGRFTISADNSKNTAYLQMNSLKPEDTAVYYCHGLGEGDPYGDYEGYFDLWGQGTLVTVSS
-1.95

Provide only the value of recorded log10 of Kd for variant 6-2 (Fc fusion) VHH: EVQLVESGGGLVQPGGSLRLSCAASGFTMSSSWMGWFRQAPGKEREFVTVISGVGTSYADSVKGRFTISADNSKNTAYLQMNSLKPEDTAVYYCARGPDSSGYGFDYWGQGTLVTVSS
-1.52
